This collection of values is drawn from patent US20030190378A1.

Examples of compounds with documented Passive cutaneous anaphylaxis Inhibitory rate (%) Abdominal administration follow.
# System: ICR mouse
# experimental.protocol: Passive cutaneous anaphylaxis test (Evans blue leakage)
# Assay type: in vivo
# condition.parameters: Table 6, 25 mg/kg abdominal
metric: Passive cutaneous anaphylaxis Inhibitory rate (%) Abdominal administration

# compound, result
rows = [
    ("CC(C)=CCC[C@](C)(O[C@@H]1O[C@H](CO)[C@@H](O)[C@H](O)[C@H]1O)[C@H]1CC[C@]2(C)[C@@H]1[C@H](O)C[C@@H]1[C@@]3(C)CC[C@H](O)C(C)(C)[C@@H]3[C@@H](O[C@@H]3O[C@H](CO)[C@@H](O)[C@H](O)[C@H]3O[C@@H]3O[C@@H](C)[C@H](O)[C@@H](O)[C@H]3O)C[C@]12C [Ginsenoside Re]", "15%"),
    ("CC(C)=CCC=C(C)[C@H]1CC[C@]2(C)[C@@H]1[C@H](O)C[C@@H]1[C@@]3(C)CC[C@H](O)C(C)(C)[C@@H]3[C@@H](O[C@@H]3O[C@H](CO)[C@@H](O)[C@H](O)[C@H]3O[C@@H]3O[C@@H](C)[C@H](O)[C@@H](O)[C@H]3O)C[C@]12C (stereo in doubt) [Ginsenoside F4]", "63%"),
    ("CC(C)=CCC[C@](C)(O[C@@H]1O[C@H](CO[C@@H]2OC[C@H](O)[C@H](O)[C@H]2O)[C@@H](O)[C@H](O)[C@H]1O)[C@H]1CC[C@]2(C)[C@@H]1[C@H](O)C[C@@H]1[C@@]3(C)CC[C@H](O[C@@H]4O[C@H](CO)[C@@H](O)[C@H](O)[C@H]4O[C@@H]4O[C@H](CO)[C@@H](O)[C@H](O)[C@H]4O)C(C)(C)[C@@H]3CC[C@]12C [Ginsenoside Rb2]", "12%"),
]

====

Listing of recorded Passive cutaneous anaphylaxis Inhibitory rate (%) Abdominal administration by entry.
# System: ICR mouse
# experimental.protocol: Passive cutaneous anaphylaxis test (Evans blue leakage)
# Format: in vivo
# condition.parameters: Table 6, 25 mg/kg abdominal
metric: Passive cutaneous anaphylaxis Inhibitory rate (%) Abdominal administration

# molecule, result.unit, numeric.readout
rows = [
    ("CC(C)=CCC[C@](C)(O)[C@H]1CC[C@]2(C)[C@@H]1[C@H](O)C[C@@H]1[C@@]3(C)CC[C@H](O[C@@H]4O[C@H](CO)[C@@H](O)[C@H](O)[C@H]4O)C(C)(C)[C@@H]3CC[C@]12C [Ginsenoside Rh2]", "%", 88),
    ("CC(C)=CCC[C@](C)(O)[C@H]1CC[C@]2(C)[C@@H]1[C@H](O)C[C@@H]1[C@@]3(C)CC[C@H](O)C(C)(C)[C@@H]3[C@@H](O[C@@H]3O[C@H](CO)[C@@H](O)[C@H](O)[C@H]3O)C[C@]12C [Ginsenoside Rh1]", "%", 87),
    ("CC(C)=CCC[C@@](C)(O)[C@H]1CC[C@]2(C)[C@@H]1[C@H](O)C[C@@H]1[C@@]3(C)CC[C@H](O)C(C)(C)[C@@H]3CC[C@]12C", "%", 25),
    ("CC(C)=CCC[C@](C)(O[C@@H]1O[C@H](CO)[C@@H](O)[C@H](O)[C@H]1O)[C@H]1CC[C@]2(C)[C@@H]1[C@H](O)C[C@@H]1[C@@]3(C)CC[C@H](O)C(C)(C)[C@@H]3[C@@H](O[C@@H]3O[C@H](CO)[C@@H](O)[C@H](O)[C@H]3O)C[C@]12C [Ginsenoside Rg1]", "%", 37),
    ("CC(C)=CCC[C@](C)(O)[C@H]1CC[C@]2(C)[C@@H]1[C@H](O)C[C@@H]1[C@@]3(C)CC[C@H](O)C(C)(C)[C@@H]3[C@@H](O[C@@H]3O[C@H](CO)[C@@H](O)[C@H](O)[C@H]3O[C@@H]3O[C@H](CO)[C@@H](O)[C@H](O)[C@H]3O)C[C@]12C [Ginsenoside Rf]", "%", 40),
    ("CC(C)=CC/C=C(\\C)[C@H]1CC[C@]2(C)[C@@H]1[C@H](O)C[C@@H]1[C@@]3(C)CC[C@H](O[C@@H]4O[C@H](CO)[C@@H](O)[C@H](O)[C@H]4O[C@@H]4O[C@H](CO)[C@@H](O)[C@H](O)[C@H]4O)C(C)(C)[C@@H]3CC[C@]12C [Gginsenoside Rg5, ginsenoside Rg5]", "%", 45),
    ("CC(C)=CCC[C@](C)(O[C@@H]1O[C@H](CO)[C@@H](O)[C@H](O)[C@H]1O)[C@H]1CC[C@]2(C)[C@@H]1[C@H](O)C[C@@H]1[C@@]3(C)CC[C@H](O)C(C)(C)[C@@H]3[C@@H](O)C[C@]12C [Ginsenoside F1]", "%", 69),
]
